Subject of test: human KRAS G12C protein (Homo sapiens, UniProt P01116, G12C)
Sequence (P01116 2-169 isoform P01116-2 G12C): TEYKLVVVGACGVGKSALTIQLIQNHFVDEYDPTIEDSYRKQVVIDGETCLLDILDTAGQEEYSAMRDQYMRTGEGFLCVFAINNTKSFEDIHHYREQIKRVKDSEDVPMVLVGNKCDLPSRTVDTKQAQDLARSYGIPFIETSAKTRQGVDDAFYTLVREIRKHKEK
Experiment: HTRF-based nucleotide exchange assay detecting GTP binding to K-Ras
Assay conditions: KRAS G12C (aa 2-169), SOS1 (aa 564-1049), read-out: IC50, SOS1 mediated nucleotide exchange
Measured quantity: IC50

Lookup: May I ask what IC50 has been recorded for C=CC(=O)N1CCN(c2nc(OC[C@@H]3CCCN3C)c(C#N)c3c2CCN(c2cccc4cccc(Cl)c24)C3)C[C@@H]1CC#N (single isomer, unassigned) [Ex 25] ?
Found: < 10 nM

---

Tested on: Calu-1
Experiment: 3D cell proliferation assay, KRAS G12C mutant cell line Calu-1
Assay type: cell-based
Assay conditions: Homo sapiens, 168 h, 7 day
Measured quantity: IC50

Lookup: May I ask what IC50 has been recorded for C=CC(=O)N1CCN(c2nc(OC[C@@H]3CCCN3C)c(C#N)c3c2CCN(c2cccc4cccc(Cl)c24)C3)C[C@@H]1CC#N (single isomer, unassigned) ?
Found: 100 to 200 nM
